- Tested target: UniProt P22392
- Sequence (P22392 whole entry): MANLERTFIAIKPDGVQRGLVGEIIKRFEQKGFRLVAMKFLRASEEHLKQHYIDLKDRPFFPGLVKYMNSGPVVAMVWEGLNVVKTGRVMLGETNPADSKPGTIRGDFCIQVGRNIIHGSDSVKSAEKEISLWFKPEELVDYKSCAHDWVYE
- Assay protocol: Binding affinity to NM23-H2 (unknown origin) assessed as ratio of Kd for protein interaction with biotin-labeled Pu22 c-myc G-quadruplex DNA in presence and absence of compound after 1 hr by ELISA
Listing: Ratio of selected compounds

Chemical string: CCN(CC)CCCNc1cc2nc3n(c(=O)c2cc1F)CC/C3=C\c1ccc(OCc2ccccc2)cc1O
Ratio: > 3
//
Chemical string: CN(C)CCCNc1cc2nc3n(c(=O)c2cc1F)CC/C3=C\c1ccc(/C=C/c2ccccn2)cc1
Ratio: > 3
//
Chemical string: CCN(CC)CCCNc1cc2nc3n(c(=O)c2cc1F)CC/C3=C\c1ccc(OCc2ccccc2)cc1
Ratio: > 3

// sample O=C(CCN1CCCC1)Nc1ccc(/C=C2\CCCn3c2nc2cc(NC(=O)CCN4CCCC4)ccc2c3=O)cc1 , its Ratio was 2.3

Value of Ratio reported for the compound CC(C)Oc1ccc(/C=C2\CCn3c2nc2cc(NCCCN(C)C)c(F)cc2c3=O)cc1 is > 3

Field Ratio (entry COc1cc(/C=C2\CCn3c2nc2cc(NCCCN(C)C)c(F)cc2c3=O)cc(OC)c1OC ) reads 2.1 to 2.6

# compound CCN(CC)CCCNc1cc2nc3n(c(=O)c2cc1F)CC/C3=C\c1ccc(OCc2ccccc2)c(O)c1 ; its Ratio = > 3

Reported Ratio for O=c1c2cc(F)c(NCCCN3CCCC3)cc2nc2n1CC/C2=C\c1ccc(OCc2ccccc2)cc1O was > 3

// provenance: ChEMBL document CHEMBL4017489
